Exercise: for every item that follows, state its recorded TGI.
Test system: RPMI-8226 leukemia
Assay remarks: NCI tumour cell line growth inhibition, 48 h
Where a SMILES comes first, the peptide text is derived from it. [ ]: non-standard residue; d: D form. The star is where a group is joined. AllylGly = C=CC[CH](N)C(=O)O; Boc = CC(C)(C)OC(=O)*; OtBu = CC(C)(C)O*

Could you share what TGI was measured for CC1(c2nc3cc(Cl)c(Cl)cc3[nH]2)CCC(CO)C(C)(C)O1 (configuration not stated) , tested on RPMI-8226 leukemia?
> 100 µM

And what about the compound "CCOC(=O)c1sc2nc3sc(N=Nc4ccc(Cl)cc4)c(O)n3c(=S)c2c1C" ?
> 100 µM

And what about the compound N/N=C1\C(=O)N(C2CCCCC2)C(=O)C1C(=O)NC1CCCCC1 (configuration not stated) ?
> 100 µM

And what about the compound "CC(C)[C@@]12C[C@@H](OC(=O)[C@H]3CO3)[C@@](C)(O1)[C@@H]1CC[C@@H](C)[C@H]1[C@@H]2OC(=O)/C=C/c1ccccc1" ?
68.2 µM

And what about the compound C1CCN(CCC2CCCCN2)CC1 (configuration not stated) ?
> 100 µM

And what about the compound CCOC(=O)N1CCc2cc(OC)c(OC)c3c2C1CC3=O (configuration not stated) ?
> 100 µM

And what about the compound "CC(=O)c1ccc(NC(=O)CSc2nnc(-c3cc(-c4ccc(C)cc4)nc4ccccc34)o2)cc1" ?
> 100 µM

And what about the compound "O=c1oc2ccccc2c(O)c1C(c1ccco1)c1c(O)c2ccccc2oc1=O" ?
66.1 µM

And what about the compound CC1(C2(C)OC(=O)c3ccccc32)OC(=O)c2ccccc21 (configuration not stated) ?
> 100 µM

And what about the compound "CCCCCCCCCCCCCCCCCC1=NCCN1CS(=O)(=O)O" ?
90.1 µM

And what about the compound "O=S(O)CCCCCSSCCCCSSCCCCCS(=O)O" ?
> 100 µM

And what about the compound COc1nc(SC)nc2c1cnn2C1OC(C(O)CO)C(OC)C1O (configuration not stated) ?
> 100 µM

And what about the compound "O=C(/C=C/c1ccc(Cl)cc1)Oc1ccc(/C=C2\CCCCC2=O)cc1" ?
> 100 µM

And what about the compound "N#CCCN(CCC#N)c1ccc(C(N=Nc2ccccc2)=Nc2ccccc2)cc1" ?
> 100 µM

And what about the compound "CCOC(=O)c1c(C)c2c(n1C)CCc1cn[nH]c1-2" ?
> 100 µM

And what about the compound C=CCC(NC(=O)C(CC(=O)OC(C)(C)C)NC(=O)OC(C)(C)C)C(=O)OC (configuration not stated) (Boc-Asp(OtBu)-[AllylGly]-OMe; configuration not given here) ?
> 84.6 µM

And what about the compound "CCOC(=O)C(=O)Nc1ccc(C)cc1C" ?
> 100 µM

And what about the compound "CC(C)(C)c1nc2c(o1)C(=O)c1ccccc1C2=O" ?
16.8 µM

And what about the compound CC(=O)OC1CC(n2cc(F)c(=O)[nH]c2=O)OC1CO (configuration not stated) ?
> 100 µM

And what about the compound "COc1ccc(N=C(C)c2ccncc2)cc1" ?
> 100 µM

And what about the compound "COc1cc(CCCOC(=O)/C=C/c2ccc(O)c(O)c2)cc(O)c1O" ?
> 100 µM

And what about the compound "C/C(=N\NC(=O)c1ccncc1)c1ccc2ccccc2c1O" ?
> 64.4 µM

###

Test system: SW-620 colon
Assay remarks: NCI tumour cell line growth inhibition, 48 h
Exercise: for every item that follows, state its recorded TGI.

Could you share what TGI was measured for NC(CSC(c1ccccc1)(c1ccccc1)c1ccc(Cl)cc1)C(=O)O (centres undefined) , tested on SW-620 colon?
> 78.7 µM

And what about the molecule "Cn1c(=O)cc(NCc2ccc(Cl)cc2)[nH]c1=O" ?
> 100 µM

And what about the molecule COc1ccc(/C(=N/NC(=O)NN)C(c2ccc(OC)cc2)C2(O)CNc3c(Cl)cc(Cl)cc32)cc1 (centres undefined) ?
> 100 µM

And what about the molecule "COc1cc(C(=O)/C=C/c2cc(C(=O)c3cc(OC)c(OC)c(OC)c3)ccc2OC)ccc1N" ?
> 100 µM

And what about the molecule Nc1nc(SCCNC(=O)CCc2ccc(O)cc2)nc2c1ncn2C1OC(CO)C(O)C1O (centres undefined) ?
> 203 µM

And what about the molecule "CCOC(=O)C(=O)Nc1c(F)cc(F)cc1Br" ?
> 100 µM

And what about the molecule "C=C(C)[C@@H]1CC[C@]2(C)[C@H](C(=O)C=C3[C@@H]4C[C@](C)(C(=O)N5CCN(C)CC5)CC[C@]4(C)CC[C@]32C)[C@@]1(C)CCC#N" ?
14.9 µM

And what about the molecule "CCCn1c(SCC)c2ccccc2c1-c1nc(F)nc(F)n1" ?
> 100 µM

And what about the molecule "O=C(OCc1ccccc1)N1CCN(/[N+]([O-])=N/Oc2ccc([N+](=O)[O-])cc2[N+](=O)[O-])CC1" ?
> 100 µM

###

Exercise: for every item that follows, state its recorded TGI.
System: SN12C renal
Assay remarks: NCI tumour cell line growth inhibition, 48 h

Could you share what TGI was measured for "Cc1ccc(-c2nc(SCC(=O)O)n[nH]2)cc1" , tested on SN12C renal?
> 100 µM

And what about the molecule "Cn1c(=O)cc(NCc2ccc(Cl)cc2)[nH]c1=O" ?
> 100 µM

And what about the molecule O=[N+]([O-])c1ccc(C2=NOC(c3ccccc3F)N2C23CC4CC(CC(C4)C2)C3)cc1 (centres undefined) ?
> 100 µM

And what about the molecule "N#Cc1c(-c2ccco2)cc(-c2ccc(NCc3nc4ccccc4[nH]3)cc2)nc1N" ?
59.6 µM

And what about the molecule "C=C1C[C@](OC)([C@H](O)C(=O)N[C@@H](OC)[C@@H]2C[C@@H](O)C(C)(C)[C@@H](C[C@@H](COC)OC)O2)O[C@H](C)[C@@H]1C" ?
0.00638 µM

And what about the molecule "CCCCCCOc1ccc(C(=O)NOCc2ccccc2)cc1" ?
> 100 µM

And what about the molecule "COc1ccc(-c2ccc(/C=N/n3c(COc4ccccc4Cl)nn(CN4CCN(C)CC4)c3=S)o2)c([N+](=O)[O-])c1" ?
35.2 µM

And what about the molecule COCC1OC(OC2C3=C(C(C)C)CCC3(C)/C=C3\C(CCC3(O)COC)C(C)C2O)C(O)C2OC3OC12OC3(C)C1CO1 (centres undefined) ?
> 100 µM

And what about the molecule O=C1C(/C=C/c2ccc(Cl)cc2)=NNC2N1N=C1NC(=O)C3(NN12)c1ccccc1-c1ccccc13 (centres undefined) ?
> 100 µM

And what about the molecule CCCCCC(O)C1C(=O)OC(C)C(O)/C=C/C=C/C=C/C=C\C=C(\C)C(O)CC(O)CC(O)CC(O)CC(O)CC(O)CC1O (centres undefined) ?
> 100 µM

And what about the molecule "CCC[CH2][Sn]([CH2]CCC)([O]C(=O)c1cc(F)cc(F)c1)[O]C(=O)c1cc(F)cc(F)c1" ?
2.68 µM

And what about the molecule CCC1=CC2CN3CCc4c([nH]c5ccccc45)C(C(=O)OC)(C2)C13 (centres undefined) ?
89.3 µM

And what about the molecule "Cc1c(CCOC=O)c(=O)[nH]c2nncn12" ?
> 100 µM

And what about the molecule "C[C@H](Nc1c(O)c2c(c(O)c1Cl)C(=O)C=CC2=O)C(=O)Nc1ccc([N+](=O)[O-])cc1" ?
2.99 µM

And what about the molecule CCCCC(C)C1CCC2(C)C=CC(=O)C(C)=C2C1O (centres undefined) ?
> 100 µM

And what about the molecule "CN1C2CC(=O)CC1[C@H](O)[C@@H]2O" ?
> 100 µM

And what about the molecule CCCN(CCCC(NC(C)=O)C(=O)NCc1ccccc1)C(=O)NC (centres undefined) ?
> 100 µM

And what about the molecule "COc1cc(C(=O)/C=C/c2cc(C(=O)c3cc(OC)c(OC)c(OC)c3)ccc2OC)ccc1N" ?
4.92 µM

And what about the molecule "O=C1CCC[C@]2(CCC[C@@H](O)C2)N1" ?
> 100 µM

###

Exercise: for every item that follows, state its recorded GI50.
Tested on: SW-620 colon
Assay remarks: NCI tumour cell line growth inhibition, 48 h

Report GI50 for "C=C(C)[C@@H]1CC[C@]2(C)[C@H](C(=O)C=C3[C@@H]4C[C@](C)(C(=O)N5CCN(C)CC5)CC[C@]4(C)CC[C@]32C)[C@@]1(C)CCC#N" please.
6.99 µM

And what about the compound "CC(=O)N1CC(Nc2ccc(OC(F)(F)F)cc2)=CC1=O" ?
0.476 µM

And what about the compound "CC(=O)c1ccc(NC(=O)CSc2nnc(-c3cc(-c4ccc(C)cc4)nc4ccccc34)o2)cc1" ?
3.24 µM

Values from PubChem BioAssay (NCI)
